// data source = ChEMBL document CHEMBL1142013

- target_or_test_system: Polyunsaturated fatty acid lipoxygenase ALOX15 (Oryctolagus cuniculus, UniProt P12530)
- Sequence (P12530 whole entry): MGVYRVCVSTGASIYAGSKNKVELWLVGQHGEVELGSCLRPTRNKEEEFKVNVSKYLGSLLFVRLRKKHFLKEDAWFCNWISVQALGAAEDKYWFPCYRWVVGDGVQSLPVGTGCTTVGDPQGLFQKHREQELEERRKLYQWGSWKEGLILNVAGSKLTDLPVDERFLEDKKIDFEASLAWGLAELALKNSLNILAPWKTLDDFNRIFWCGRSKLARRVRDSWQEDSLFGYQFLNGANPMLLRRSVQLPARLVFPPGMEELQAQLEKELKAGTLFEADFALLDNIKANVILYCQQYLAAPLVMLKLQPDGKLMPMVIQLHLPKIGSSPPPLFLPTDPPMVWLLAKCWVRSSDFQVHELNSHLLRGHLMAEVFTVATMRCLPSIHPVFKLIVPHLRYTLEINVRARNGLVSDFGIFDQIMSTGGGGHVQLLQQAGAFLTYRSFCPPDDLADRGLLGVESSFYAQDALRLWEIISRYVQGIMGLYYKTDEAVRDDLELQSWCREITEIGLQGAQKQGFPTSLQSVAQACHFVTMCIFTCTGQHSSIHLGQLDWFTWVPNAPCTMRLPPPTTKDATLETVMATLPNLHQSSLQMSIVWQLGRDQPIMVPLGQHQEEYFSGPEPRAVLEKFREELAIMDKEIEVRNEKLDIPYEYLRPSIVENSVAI
- measurement_notes: Inhibitory concentration against rabbit reticulocyte 15-lipoxygenase with substrate arachidonic acid
property_measured: IC50 (nM)

Below, each entry is followed by its recorded IC50 result.
{"columns": ["smiles_data", "target_or_test_system", "IC50 [nM]"],
 "data": [
  ["CCCCc1ccc(S(=O)(=O)NCCc2c[nH]c3ccccc23)cc1", "Polyunsaturated fatty acid lipoxygenase ALOX15 (Oryctolagus cuniculus, UniProt P12530)", 4000],
  ["CCCCCc1ccc(S(=O)(=O)NCCc2c[nH]c3cc(F)ccc23)cc1", "Polyunsaturated fatty acid lipoxygenase ALOX15 (Oryctolagus cuniculus, UniProt P12530)", 2900],
  ["CCCCCc1ccc(S(=O)(=O)NCCc2c(-c3cnc4ccccc4c3)[nH]c3ccccc23)cc1", "Polyunsaturated fatty acid lipoxygenase ALOX15 (Oryctolagus cuniculus, UniProt P12530)", 50]
]}

I: CCCCc1ccc(-c2ccc(S(=O)(=O)NCCc3c[nH]c4ccccc34)cc2)cc1
II: CCCCCc1ccc(S(=O)(=O)NCCc2c(-c3ccc(OCC)cc3)[nH]c3ccccc23)cc1
IN: Consider I and II . Which of these has its IC50 at a higher number? I would appreciate it if you answered with the label of your choice.
OUT: I
(I: 200 nM, II: 39 nM)

P: CC(C)c1ccc(-c2ccc(S(=O)(=O)NCCc3c[nH]c4ccccc34)cc2)cc1
Q: O=S(=O)(NCCc1c[nH]c2ccccc12)c1ccc(-c2ccccc2)cc1
IN: Consider P and Q . Which of these has its IC50 at a higher number? I would appreciate it if you answered with the label of your choice.
OUT: Q
(Q: 4200 nM, P: 140 nM)

P: NNC(=O)c1ccc(S(=O)(=O)NCCc2c(-c3cc4ccccc4o3)[nH]c3ccccc23)cc1
Q: CCCCCc1ccc(S(=O)(=O)NCCc2c(-c3cc4ccccc4o3)n(C)c3ccccc23)cc1
IN: Kindly identify the item with the lower IC50 figure among these two: P and Q I would appreciate it if you answered with the label of your choice.
OUT: P
(P: 135 nM, Q: 1420 nM)
